test system: FMOC11 (patient-derived high-grade serous ovarian cancer cells); test: drug sensitivity score (DSS3, normalised partial AUC of % inhibition dose-response) (DSS (score)); higher = more sensitive (stronger inhibition of viability); extreme values may be limits of the assay; conditions: 72 h; library: FO5A; assay format: 2D, 384-well, CellTiter-Glo
So I've got a bunch of molecules here, and I need their drug sensitivity score values.
Field format: numeric only.

### Prompt GET /values?readout=drug sensitivity score&item= `Cc1c(F)cc(C(=O)NC2CC2)cc1-c1ccc(C(=O)NCC(C)(C)C)cn1`
### Response 1.4

### Prompt GET /values?readout=drug sensitivity score&item= `Cc1c(-c2c(-c3ccc(F)o3)sc3ncnc(O[C@H](Cc4ccccc4OCc4ccnn4CC(F)(F)F)C(=O)O)c23)ccc(OCCN2CCN(C)CC2)c1Cl`
### Response 0

### Prompt GET /values?readout=drug sensitivity score&item= `COc1cc2/c(=N/c3ccc(Br)cc3F)nc[nH]c2cc1OCC1CCN(C)CC1`
### Response 3.1

### Prompt GET /values?readout=drug sensitivity score&item= `C=C1C[C@@H]2[C@H](CC[C@]3(C)C(=O)CC[C@@H]23)[C@@]2(C)C=CC(=O)C=C12`
### Response 0
